- Subject Of Test: human IRAK4 (Homo sapiens (Human), UniProt Q9NWZ3)
- Sequence (Q9NWZ3 whole entry): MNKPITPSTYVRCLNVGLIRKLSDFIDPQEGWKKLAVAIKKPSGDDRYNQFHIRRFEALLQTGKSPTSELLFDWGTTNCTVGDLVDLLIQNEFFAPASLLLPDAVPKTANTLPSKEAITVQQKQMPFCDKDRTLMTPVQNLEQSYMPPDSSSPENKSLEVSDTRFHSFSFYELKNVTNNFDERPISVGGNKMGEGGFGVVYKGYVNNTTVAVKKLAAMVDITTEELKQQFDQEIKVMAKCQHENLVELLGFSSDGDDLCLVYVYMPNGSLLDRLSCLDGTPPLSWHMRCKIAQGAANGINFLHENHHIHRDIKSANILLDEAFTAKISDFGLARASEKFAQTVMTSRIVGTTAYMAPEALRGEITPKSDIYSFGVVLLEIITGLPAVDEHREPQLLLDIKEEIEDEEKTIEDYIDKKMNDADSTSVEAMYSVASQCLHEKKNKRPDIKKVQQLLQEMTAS
- Assay Protocol: IRAK4 kinase inhibition, Transcreener fluorescence polarization (ADP detection)
- Recorded Conditions: recombinant full-length His6-IRAK4; 1.25 nM IRAK4; 125 μM ATP; 90 min; ATP Km 642 μM
- Method: Compounds were assayed for inhibition of human IRAK4 and IRAK1 catalytic activity using recombinant enzyme produced from insect cells. Full-length IRAK4 protein, carrying an N-terminal His6-Tag, was obtained from Life Technologies (Carlsbad, Calif., USA). The IRAK1 construct was produced internally and was comprised of IRAK1 residues Arg194 to Ser712, preceded by an NH2-terminal His6 tag and the coding sequence for glutathione-S-transferase. […]
# reported Ki; entries follow
Test Readout: Ki

• CC1(C)Cc2cc(NC(=O)c3ccc[nH]c3=O)c(N3CCOCC3)cc2O1 [Example 12] = 0.077 µM
• CC1(C)Cc2cc(NC(=O)c3ccco3)c(N3CCOCC3)cc2O1 [Example 48] = 0.22 µM
• CC1(C)Cc2cc(NC(=O)c3cscn3)c(N3CCOCC3)cc2O1 [Example 42] = 0.098 µM
• CC1(C)Cc2cc(NC(=O)c3ccn(-c4ccnc(C(C)(C)O)c4)n3)c(N3CCOCC3)cc2O1 [Example 61] = 0.0046 µM
• CC1(C)Cc2cc(NC(=O)c3ccn(-c4cc[nH]c(=O)c4)n3)c(N3CCOCC3)cc2O1 [Example 70] = 0.0027 µM

Source of measurements: patent US10899774B2
